# TEST NAME: Cytoprotective activity against glutamate/glycine-induced cell death in mouse L-M(TK-) cells assessed as increase in cell viability at 10 uM incubated for 30 mins followed by glutamate/glycine stimulation and measured after 6 hrs by LDH assay relative to control
# Type: functional
# CONDITION SUMMARY: time 6.5 hrs
ASSAY METRIC: Activity (%)
All answers are understood in %, so give the number only.

* c1ccc(CCCNC2CCc3ccccc3CC2)cc1 | 29
* c1ccc(CCCNC2Cc3ccccc3C2)cc1 | 31

Please give the measured Activity for this compound: `c1ccc(CC2CCN(C3Cc4ccccc4C3)CC2)cc1`
7

Please give the measured Activity for this compound: c1ccc(CCCNC2CCc3ccccc3C2)cc1 (centres undefined)
30

---

Reported pKi is given for each of the following compounds.
# STUDY SYSTEM: Sigma non-opioid intracellular receptor 1 (Cavia porcellus)
# Sequence (Q60492 whole entry): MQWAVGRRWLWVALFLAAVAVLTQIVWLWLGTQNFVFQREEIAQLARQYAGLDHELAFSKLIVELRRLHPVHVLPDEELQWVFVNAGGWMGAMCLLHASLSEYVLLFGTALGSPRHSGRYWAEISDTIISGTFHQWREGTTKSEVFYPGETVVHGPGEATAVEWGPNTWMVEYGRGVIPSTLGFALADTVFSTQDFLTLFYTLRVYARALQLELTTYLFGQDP
# TEST NAME: Displacement of [3H]-(+)-pentazocine from Sigma1 receptor in guinea pig cortex membranes incubated for 120 mins by scintillation counting method
Please keep in mind that pKi is minus log10 of the molar concentration; only the number is needed.

These recorded examples may help you get a feel for the data.
* c1ccc(CNC2CCc3ccccc3C2)cc1 (stereo not drawn) | 6.55
* c1ccc(CCNC2Cc3ccccc3C2)cc1 | 6.77
* c1ccc(CCCN2CCCc3ccccc3CC2)cc1 | 7.77
* c1ccc(CCCCNC2CCc3ccccc3C2)cc1 (stereo not drawn) | 7.34
* c1ccc(CC2CCN(C3CCc4ccccc4C3)CC2)cc1 (stereo not drawn) | 8.22

Lab request: please report pKi under test system Sigma non-opioid intracellular receptor 1 (Cavia porcellus) for `c1ccc(CCCNC2Cc3ccccc3C2)cc1`
7.24

Lab request: please report pKi under test system Sigma non-opioid intracellular receptor 1 (Cavia porcellus) for c1ccc(CCNC2CCc3ccccc3C2)cc1 (stereo not drawn)
7.29

Lab request: please report pKi under test system Sigma non-opioid intracellular receptor 1 (Cavia porcellus) for c1ccc(C2CCN(C3CCc4ccccc4C3)CC2)cc1 (stereo not drawn)
8.72

Lab request: please report pKi under test system Sigma non-opioid intracellular receptor 1 (Cavia porcellus) for `c1ccc(C2CCN(C3Cc4ccccc4C3)CC2)cc1`
7.36

Lab request: please report pKi under test system Sigma non-opioid intracellular receptor 1 (Cavia porcellus) for `c1ccc(CC2CCN(C3Cc4ccccc4C3)CC2)cc1`
7.29

Lab request: please report pKi under test system Sigma non-opioid intracellular receptor 1 (Cavia porcellus) for `c1ccc(CCCCN2CCCc3ccccc3CC2)cc1`
7.66

Lab request: please report pKi under test system Sigma non-opioid intracellular receptor 1 (Cavia porcellus) for c1ccc(CCCNC2CCc3ccccc3C2)cc1 (stereo not drawn)
7.23

Lab request: please report pKi under test system Sigma non-opioid intracellular receptor 1 (Cavia porcellus) for `c1ccc(CCCCNC2Cc3ccccc3C2)cc1`
7.51

---

# STUDY SYSTEM: Sigma intracellular receptor 2 (Rattus norvegicus, UniProt Q5U3Y7)
# Sequence (Q5U3Y7 whole entry): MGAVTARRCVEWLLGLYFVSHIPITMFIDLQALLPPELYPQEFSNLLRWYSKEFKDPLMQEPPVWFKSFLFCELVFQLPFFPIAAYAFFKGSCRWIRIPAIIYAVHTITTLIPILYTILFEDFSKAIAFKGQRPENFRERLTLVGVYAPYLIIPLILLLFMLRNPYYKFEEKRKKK
# TEST NAME: Displacement of [3H]DTG from sigma 2 receptor in rat liver membranes incubated for 120 mins by scintillation counting method
Reported pKi is given for each of the following compounds.
Please keep in mind that pKi is minus log10 of the molar concentration; only the number is needed.

These recorded examples may help you get a feel for the data.
• c1ccc(CCCN2CCCc3ccccc3CC2)cc1 = 6.75
• c1ccc(CCCCNC2Cc3ccccc3C2)cc1 = 6.82
• c1ccc(CCNC2Cc3ccccc3C2)cc1 = 6.16

Please give the measured pKi for this compound: `c1ccc(CCCCN2CCCc3ccccc3CC2)cc1`
7.30

Please give the measured pKi for this compound: c1ccc(CCNC2CCc3ccccc3C2)cc1 (stereo not drawn)
7.15

Please give the measured pKi for this compound: `c1ccc(CCCNC2Cc3ccccc3C2)cc1`
7.42

Please give the measured pKi for this compound: c1ccc(CNC2CCc3ccccc3C2)cc1 (stereo not drawn)
7.19

Please give the measured pKi for this compound: `c1ccc(CC2CCN(C3Cc4ccccc4C3)CC2)cc1`
7.55

Please give the measured pKi for this compound: c1ccc(C2CCN(C3CCc4ccccc4C3)CC2)cc1 (stereo not drawn)
8.54

Please give the measured pKi for this compound: c1ccc(CC2CCN(C3CCc4ccccc4C3)CC2)cc1 (stereo not drawn)
8.68

Please give the measured pKi for this compound: c1ccc(CCCNC2CCc3ccccc3C2)cc1 (stereo not drawn)
7.54

Please give the measured pKi for this compound: c1ccc(CCCCNC2CCc3ccccc3C2)cc1 (stereo not drawn)
7.30

Please give the measured pKi for this compound: `c1ccc(C2CCN(C3Cc4ccccc4C3)CC2)cc1`
7.60
